Reference source for all entries: the supplement of paper PMC10307832

# Tested on: HCC-78
# Assay Name: relative viability (nuclei count vs DMSO), 5 days (fraction); higher = more cells survive
# Settings: first compound 0.08 µM

Compound	Experimental Target	relative viability
C=C1C(=O)O[C@@H](CCCCCCCC)[C@@H]1C(=O)O [C-75] + C[C@]1(O)C[C@@H](c2nc(-c3ccc4ccc(-c5ccccc5)nc4c3)c3c(N)nccn32)C1 [Linsitinib] (partner 1 µM)	HCC-78	0.642
Oc1nc(-c2ccc(C(F)(F)F)cc2)nc2c1CSCC2 [XAV939] + O=C(CCCCCCC(=O)Nc1ccccc1)NO [Vorinostat] (partner 1 µM)	HCC-78	0.526
Oc1nc(-c2ccc(C(F)(F)F)cc2)nc2c1CSCC2 [XAV939] + CC(=O)c1c(C)c2cnc(Nc3ccc(N4CCNCC4)cn3)nc2n(C2CCCC2)c1=O [Palbociclib] (partner 0.5 µM)	HCC-78	0.479
Oc1nc(-c2ccc(C(F)(F)F)cc2)nc2c1CSCC2 [XAV939] + CC1(C)CCC(c2ccc(Cl)cc2)=C(CN2CCN(c3ccc(C(=O)NS(=O)(=O)c4ccc(N[C@H](CCN5CCOCC5)CSc5ccccc5)c(S(=O)(=O)C(F)(F)F)c4)cc3)CC2)C1 [Navitoclax] (partner 0.5 µM)	HCC-78	0.842
Oc1nc(-c2ccc(C(F)(F)F)cc2)nc2c1CSCC2 [XAV939] + O=C(c1cc(Cc2n[nH]c(=O)c3ccccc23)ccc1F)N1CCN(C(=O)C2CC2)CC1 [Olaparib] (partner 8 µM)	HCC-78	0.843
